B1: EMD (parent)
chain: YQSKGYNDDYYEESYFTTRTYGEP

Variants of: B1
Experiment: protein stability index of a GFP-peptide fusion (GPS, HEK-293T) (PSI 1-6); higher = more stable;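 further: lentivirally expressed fusions sorted by FACS into six bins by GFP to DsRed ratio, PSI derived from sequencing read proportions per bin multiplied by bin number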
Conditions: c terminus: a fixed tail appended
Recorded protein stability index, one value per entry.
Answer using only a numeral; do not append any unit.

Before answering, review these 3 worked examples.
[
  {
    "variant_label": "T18I",
    "protein stability index": 1.77
  },
  {
    "variant_label": "T18N",
    "protein stability index": 2.5
  },
  {
    "variant_label": "G5C",
    "protein stability index": 1.95
  }
]

### Prompt Quick one: protein stability index for Y6D ?
### Response 3.68

### Prompt What does the record list as protein stability index for T20Q ?
### Response 1.86

### Prompt Using the record for S14Y , report its protein stability index.
### Response 2.28

### Prompt What does the data say about its protein stability index? Entry: D8A
### Response 1.5

### Prompt Would you kindly share the measured protein stability index for F16V ?
### Response 2.85

### Prompt Consider the variant shown here: N7C What is its recorded protein stability index?
### Response 2.05

### Prompt Sample D8W — what was its protein stability index?
### Response 2.85

### Prompt Can you share its protein stability index? I mean this variant: Y6S
### Response 3.77

### Prompt Returns the measured protein stability index for the input variant. Input: E13A
### Response 1.95

### Prompt I'd like to know its protein stability index. The variant in question is Y11Q
### Response 2.8

### Prompt Which value of protein stability index has been reported for E12V in the records?
### Response 1.71

### Prompt Give its protein stability index value. Item: Y6E
### Response 3.76

### Prompt Using the record for D9A , report its protein stability index.
### Response 1.44
